Readings of phenotypically active for the listed compounds
system: A549-GM130-SQSTM1; assay: phenotypically active (imaging signature differs from DMSO and reproducible) at any of 0.3-9 uM (binary (1 = active, 0 = inactive)); higher = active; details: treatment time: 24 h
Counter-ions that a name gives are not always drawn.
observedProperty: phenotypically active

>>> observedmeasurement("Cc1c(C(=O)c2cccc3ccccc23)c2cccc3c2n1[C@H](CN1CCOCC1)CO3 [WIN 55,212-2 mesylate]")
1
>>> observedmeasurement("CCN1C[C@]2(COC)CC[C@H](OC)[C@]34[C@@H]5C[C@H]6[C@H](OC)[C@@H]5[C@@]5(C[C@@H]6OC)OCO[C@@]5([C@H]13)[C@@H](O)[C@H]24")
0
>>> observedmeasurement("C[C@H]1C(=O)O[C@@H]2CCN3CC=C(COC(=O)[C@](C)(O)[C@]1(C)O)[C@H]23")
0
>>> observedmeasurement("C[C@H]1CC[C@@H]2N(C1)C[C@H]1[C@@H]3C[C@H]4[C@@H](CC(=O)[C@H]5C[C@@H](O)CC[C@@]54C)[C@@H]3CC[C@H]1[C@]2(C)O")
0
>>> observedmeasurement("CC(C)(O)[C@H]1O[C@H]2CC[C@@]3(C)[C@@](O)(CC[C@H]4Cc5c([nH]c6ccccc56)[C@@]43C)C2=CC1=O")
0
>>> observedmeasurement("O=C1NC(=O)c2c1c1c3ccccc3n3c1c1c2c2ccccc2n1C1CCC3O1")
1
>>> observedmeasurement("c1cncc(C2CC3CCN2CC3)c1 (stereo not given) [RJR 2429 dihydrochloride]")
0
>>> observedmeasurement("Nc1ccncc1")
0
>>> observedmeasurement("Cc1ccc(C[N+](C)(C)C)o1 [5-Methylfurmethiodide]")
0
>>> observedmeasurement("COc1cc2c(cc1OC)[C@@]13CCN4CC5=CCO[C@H]6CC(=O)N2[C@H]1[C@H]6[C@H]5C[C@H]43")
0
>>> observedmeasurement("C=C[C@H]1C[N@@]2CC[C@H]1C[C@H]2[C@H](O)c1ccnc2ccccc12 [(-)-Cinchonidine]")
0
>>> observedmeasurement("COc1ccc2c(c[n+](C)c3c4cc5c(cc4ccc23)OCO5)c1OC [Chelerythrine chloride]")
0
>>> observedmeasurement("CN1C[C@H](C(=O)N[C@]2(C)O[C@@]3(O)[C@@H]4CCCN4C(=O)[C@H](Cc4ccccc4)N3C2=O)C[C@@H]2c3cccc4[nH]cc(c34)C[C@H]21.CN1C[C@H](C(=O)N[C@]2(C)O[C@@]3(O)[C@@H]4CCCN4C(=O)[C@H](Cc4ccccc4)N3C2=O)C[C@@H]2c3cccc4[nH]cc(c34)C[C@H]21 [dihydroergotamine]")
1
>>> observedmeasurement("COc1ccc(N(C(=O)Oc2c(C)cccc2C)c2ccnc(Nc3ccc(N4CCN(C)CC4)cc3)n2)c(OC)c1")
1
>>> observedmeasurement("C=CCC1(C(C)C#CCC)C(=O)NC(=O)N(C)C1=O (stereo not given)")
0
